target: Human immunodeficiency virus type 1 reverse transcriptase (Human immunodeficiency virus 1) (UniProt Q72547); assay: Compound ability to inhibit the production of HIV reverse transcriptase (RT) in culture supernatant of CEM-CL13 on at 26 days at a concentration 0.2 uM; format: functional
Listed here are molecules together with their documented Activity (c.p.m. 50ul-1).

Enquiry: For the molecule Cc1cn([C@H]2C[C@H](N=[N+]=[N-])[C@@H](COP(=O)(O)OC[C@H]3OC(O)[C@@H](O)[C@@H](O)[C@@H]3O)O2)c(=O)[nH]c1=O (some centres not stated) , give its measured Activity (c.p.m. 50ul-1) value.
Return: 85000

Enquiry: Query Activity (c.p.m. 50ul-1) for Cc1cn([C@H]2C[C@H](N=[N+]=[N-])[C@@H](CO)O2)c(=O)[nH]c1=O [ZIDOVUDINE]
Return: 28000

Enquiry: Determine its reported Activity (c.p.m. 50ul-1): CCCCCCCCCCCCCCCCOP(=O)(OCCO[C@H]1O[C@H](CO)[C@@H](O)[C@H](O)[C@@H]1O)OCC1OC(n2cc(C)c(=O)[nH]c2=O)CC1N=[N+]=[N-] (some centres not stated)
Return: 61000

Enquiry: Tell us which Activity (c.p.m. 50ul-1) value is on record for CCCCCCCCCCCCCCCCOP(=O)(OC[C@H]1OC(O)[C@H](O)[C@@H](O)[C@@H]1O)OC[C@H]1OC(n2cc(C)c(=O)[nH]c2=O)C[C@@H]1N=[N+]=[N-] (some centres not stated)
Return: 64000

Enquiry: Hello, please tell me recorded Activity (c.p.m. 50ul-1) for this one: Cc1cn([C@H]2C[C@H](N=[N+]=[N-])[C@@H](COP(=O)(O)OC[C@H]3OC(O)[C@H](O)[C@@H](O)[C@@H]3O)O2)c(=O)[nH]c1=O (some centres not stated)
Return: 65000

Enquiry: Tell me measured Activity (c.p.m. 50ul-1) for Cc1cn([C@H]2C[C@H](N=[N+]=[N-])[C@@H](COP(=O)(O)OCCO[C@H]3O[C@H](CO)[C@@H](O)[C@H](O)[C@@H]3O)O2)c(=O)[nH]c1=O please.
Return: 70000

Alright, here's another molecule for you.
Enquiry: Give a short answer stating reported Activity (c.p.m. 50ul-1) for CCCCCCCCCCCCCCCCOP(=O)(OC[C@H]1OC(O)[C@@H](O)[C@@H](O)[C@@H]1O)OC[C@H]1OC(n2cc(C)c(=O)[nH]c2=O)C[C@@H]1N=[N+]=[N-] (some centres not stated) .
Return: 73000

* * *

target: Human immunodeficiency virus type 1 reverse transcriptase (Human immunodeficiency virus 1) (UniProt Q72547); assay: Compounds were evaluated for anti-RT activity by MTT dose and % cell / viability was reported at 7 days of culture; format: functional
Readings of Cell viability for the listed compounds
Report the figure in % without appending any unit label.

Enquiry: Entry Cc1cn([C@H]2C[C@H](N=[N+]=[N-])[C@@H](COP(=O)(O)OC[C@H]3OC(O)[C@@H](O)[C@@H](O)[C@@H]3O)O2)c(=O)[nH]c1=O (some centres not stated) needs its Cell viability filled in; supply it.
Return: 54

Enquiry: Consider the compound CCCCCCCCCCCCCCCCOP(=O)(OCCO[C@H]1O[C@H](CO)[C@@H](O)[C@H](O)[C@@H]1O)OCC1OC(n2cc(C)c(=O)[nH]c2=O)CC1N=[N+]=[N-] (some centres not stated) . State its measured Cell viability.
Return: 41

Enquiry: Please report the measured Cell viability for Cc1cn([C@H]2C[C@H](N=[N+]=[N-])[C@@H](CO)O2)c(=O)[nH]c1=O
Return: 100

Enquiry: Supply recorded Cell viability for CCCCCCCCCCCCCCCCOP(=O)(OC[C@H]1OC(O)[C@H](O)[C@@H](O)[C@@H]1O)OC[C@H]1OC(n2cc(C)c(=O)[nH]c2=O)C[C@@H]1N=[N+]=[N-] (some centres not stated) here.
Return: 85

Enquiry: Supply recorded Cell viability for Cc1cn([C@H]2C[C@H](N=[N+]=[N-])[C@@H](COP(=O)(O)OC[C@H]3OC(O)[C@H](O)[C@@H](O)[C@@H]3O)O2)c(=O)[nH]c1=O (some centres not stated) here.
Return: 50

Enquiry: Answer with the recorded Cell viability for the compound listed here: CCCCCCCCCCCCCCCCOP(=O)(OC[C@H]1OC(O)[C@@H](O)[C@@H](O)[C@@H]1O)OC[C@H]1OC(n2cc(C)c(=O)[nH]c2=O)C[C@@H]1N=[N+]=[N-] (some centres not stated)
Return: 77

Enquiry: Give a short answer stating reported Cell viability for Cc1cn([C@H]2C[C@H](N=[N+]=[N-])[C@@H](COP(=O)(O)OCCO[C@H]3O[C@H](CO)[C@@H](O)[C@H](O)[C@@H]3O)O2)c(=O)[nH]c1=O .
Return: 39
